B1: LINE1-full (parent)
chain: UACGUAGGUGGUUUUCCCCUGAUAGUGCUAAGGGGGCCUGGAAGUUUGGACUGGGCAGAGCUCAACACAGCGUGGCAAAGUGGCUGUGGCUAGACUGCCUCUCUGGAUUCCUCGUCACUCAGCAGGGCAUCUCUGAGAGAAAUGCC

- Variants of: B1
- assay.overview: self-cleavage, relative activity (ratio to wild type); higher = more cleavage; in vitro, sequencing; the parent is a self-cleaving ribozyme
Assign class by self-cleavage: not lower than 0.2 means MET; lower than 0.2 means NOT MET.

See these solved cases before continuing.
macromolecule.sequence: UACGUAGGUGGUUUUCCCCUGAUAGUGCUAAGGGGGCCUGGAAGUUCGGACUGGGCAGAGCUCAACACAGCGUCGCAAAGUGGCUGUGGCUAGACUGCCUCUCUGGAUUCCUCGUCACUCAGCAGGGCAUCUCUGAGAGAAAUGCC [U47C G74C]
label.value: MET
--
macromolecule.sequence: CACGUAGGUGGUUUUCCCCUGAUAGUGCUAAGGGGGCCUGGAAGUUUGGACUGGGCAGAGCUCAACACAGCGUGGCAAGGUGGCUGUGGCUAGACUGCCUCUCUGGAUUCCUCGUCACUCAGCAGGGCAUCUCUGAGAGAAAUGCC [U1C A79G]
label.value: MET
--
macromolecule.sequence: UACGUAGGUGGAUUUCCCCUGAUAGUGCUAAGGGGGCCUGGAAGUUUGGACUGGGCAGAGCUCAACACAGCGUGGCAAAGUGGCUGUGGCUAGACUGCCUCACUGGAUUCCUCGUCACUCAGCAGGGCAUCUCUGAGAGAAAUGCC [U12A U102A]
label.value: MET

Lookup: Assess whether reported self-cleavage for UACGUAGGUGGUUUUCCCCUGAUAGUGCUAAGGGGGCCUGGAAGUUUGGACUGGGCAGAGCUCAACACAGCGUGGCAAAGUGGCUGUGGCCAGACUGCCUCUCUGGAUUCCUCGUCACUCAGCAGGGCAUCUCUGAGAGAAAUACC [U91C G144A] sits at 0.2 or higher.
Found: MET

Lookup: Assess whether reported self-cleavage for UACGUAGGUGGUUUUCCCCUGAUAGUGCUAAGCGGGCCUGGAAGUUUGGACUGGGCAGAGCUCAACACAGCGUGGCAAAGUGGCUGUGGCCAGACUGCCUCUCUGGAUUCCUCGUCACUCAGCAGGGCAUCUCUGAGAGAAAUGCC [G33C U91C] sits at 0.2 or higher.
Found: MET

Lookup: Assess whether reported self-cleavage for UACGUAGGUGGUUUUCCCCUGAUAGUGCUAAGGGGGCCUGGAAGUUUGGACUGGGCAGAGCUCAACACAGCGUGGCAAAGUGGCUGUGGCUAGACUGCCUCUCUGGAUUCCUCGUCACUCAGUAGGGCAUCUCUGAGAGAGAUGCC [C123U A141G] sits at 0.2 or higher.
Found: MET
